biological target: human recombinant HDAC6 (Homo sapiens); construct: purchased Calbiochem Inc. 382180; assay: HDAC6 enzyme activity inhibition (HDAC Fluorimetric Drug Discovery Kit); type: biochemical; conditions: HDAC1 versus HDAC6
property-name: HDAC6 selectivity (fold)

Example entries begin here.
| structure-as-smiles | result-unit | HDAC6 selectivity (fold) |
| --- | --- | --- |
| FC(F)c1nnc(-c2ccc(Cn3cc(-c4ccc(CN5CCC5)c(Cl)c4)nn3)nc2)o1 | fold | 2183 |
| FC(F)c1nnc(-c2ccc(Cn3cc(-c4cc(Cl)cc(CN5CCCC5)c4)nn3)nc2)o1 | fold | 1945 |
| FC(F)c1nnc(-c2ccc(Cn3cc(-c4csc(CN5CC[C@@H](F)C5)c4)nn3)nc2)o1 | fold | 1811 |
| CC1CCN(Cc2ccc(F)c(-c3cn(Cc4ccc(-c5nnc(C(F)F)o5)cn4)nn3)c2)CC1 | fold | 1492 |
| Fc1cc(CN2CCC2)cc(-c2cn(Cc3ccc(-c4nnc(C(F)F)o4)cn3)nn2)c1 | fold | 2777 |

a: CC1CCN(Cc2cccc(-c3cn(Cc4ccc(-c5nnc(C(F)F)o5)cn4)nn3)c2Cl)CC1
b: CC1CCN(Cc2cc(-c3cn(Cc4ccc(-c5nnc(C(F)F)o5)cn4)nn3)ccc2F)CC1
c: CC1(C)CCN(Cc2ccc(-c3cn(Cc4ccc(-c5nnc(C(F)F)o5)cn4)nn3)cn2)CC1
Order the records by HDAC6 selectivity (fold), with each subsequent value no larger than the one before. Please reply with the labels ordered as requested. Many thanks.
b, c, a

* * *

biological target: human recombinant HDAC6 (Homo sapiens, UniProt Q9UBN7); construct: purchased Calbiochem Inc. 382180; experiment: HDAC6 enzyme activity inhibition (HDAC Fluorimetric Drug Discovery Kit); type: biochemical; conditions: HDAC1 versus HDAC6
Sequence (Q9UBN7 whole entry): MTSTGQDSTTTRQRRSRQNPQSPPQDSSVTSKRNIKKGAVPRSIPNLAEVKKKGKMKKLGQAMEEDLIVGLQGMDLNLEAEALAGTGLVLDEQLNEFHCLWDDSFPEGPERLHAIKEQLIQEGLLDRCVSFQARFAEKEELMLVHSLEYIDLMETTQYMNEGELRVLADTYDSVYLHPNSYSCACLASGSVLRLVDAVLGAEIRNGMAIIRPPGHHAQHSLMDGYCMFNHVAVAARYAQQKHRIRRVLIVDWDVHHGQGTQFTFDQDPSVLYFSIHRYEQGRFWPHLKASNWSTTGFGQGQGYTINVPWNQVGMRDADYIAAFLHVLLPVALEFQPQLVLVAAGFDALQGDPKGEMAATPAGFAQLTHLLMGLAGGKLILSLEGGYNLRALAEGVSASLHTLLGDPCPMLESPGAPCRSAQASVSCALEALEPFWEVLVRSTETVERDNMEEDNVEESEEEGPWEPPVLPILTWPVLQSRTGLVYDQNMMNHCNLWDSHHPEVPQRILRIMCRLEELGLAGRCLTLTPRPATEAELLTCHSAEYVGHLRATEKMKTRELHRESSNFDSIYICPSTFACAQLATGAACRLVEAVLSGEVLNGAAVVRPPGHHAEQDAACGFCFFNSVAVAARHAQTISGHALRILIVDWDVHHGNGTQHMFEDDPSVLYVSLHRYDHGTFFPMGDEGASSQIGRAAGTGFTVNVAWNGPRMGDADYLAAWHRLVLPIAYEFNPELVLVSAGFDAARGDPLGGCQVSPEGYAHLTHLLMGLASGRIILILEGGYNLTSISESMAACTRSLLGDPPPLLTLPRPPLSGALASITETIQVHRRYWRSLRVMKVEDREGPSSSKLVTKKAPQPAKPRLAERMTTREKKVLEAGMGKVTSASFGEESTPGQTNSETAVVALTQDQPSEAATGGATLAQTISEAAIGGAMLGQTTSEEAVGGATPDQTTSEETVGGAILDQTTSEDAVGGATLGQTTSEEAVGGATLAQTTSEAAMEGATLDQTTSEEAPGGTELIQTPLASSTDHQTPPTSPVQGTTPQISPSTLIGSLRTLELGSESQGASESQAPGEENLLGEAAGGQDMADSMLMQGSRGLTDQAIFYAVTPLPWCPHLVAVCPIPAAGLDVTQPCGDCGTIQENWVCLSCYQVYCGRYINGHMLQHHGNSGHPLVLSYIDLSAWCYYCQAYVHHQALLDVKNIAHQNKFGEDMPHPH
property-name: HDAC6 selectivity (fold)

P: FC(F)c1nnc(-c2ccc(Cn3cc(-c4cccc(CN5CCC5)c4Cl)nn3)nc2)o1
Q: FC(F)c1nnc(-c2ccc(Cn3cc(-c4ccc(CN5CCCC5)cn4)nn3)nc2)o1
Looking at P and Q , which one comes out lower in HDAC6 selectivity (fold) terms? Refer to your chosen entry by its label in the reply.
P

* * *

target: human recombinant HDAC6 (Homo sapiens); construct: purchased Calbiochem Inc. 382180; assay: HDAC6 enzyme activity inhibition (HDAC Fluorimetric Drug Discovery Kit); assay type: biochemical; settings: HDAC1 versus HDAC6
property-name: HDAC6 selectivity (fold)

Example entries begin here.
| structure-as-smiles | tested-on | result-unit | HDAC6 selectivity (fold) |
| --- | --- | --- | --- |
| CN(C)Cc1cc(-c2cn(Cc3ccc(-c4nnc(C(F)F)o4)cn3)nn2)ccc1F | human recombinant HDAC6 (Homo sapiens) | fold | 2702 |
| CN(C)Cc1cc(Cl)cc(-c2cn(Cc3ccc(-c4nnc(C(F)F)o4)cn3)nn2)c1 | human recombinant HDAC6 (Homo sapiens) | fold | 1424 |
| CN(C)Cc1cc(-c2cn(Cc3ccc(-c4nnc(C(F)F)o4)cn3)nn2)cs1 | human recombinant HDAC6 (Homo sapiens) | fold | 1577 |

a: CN(C)Cc1ccc(F)c(-c2cn(Cc3ccc(-c4nnc(C(F)F)o4)cn3)nn2)c1
b: FC(F)c1nnc(-c2ccc(Cn3cc(-c4csc(CN5CCC(F)(F)CC5)c4)nn3)nc2)o1
c: Fc1ccc(-c2cn(Cc3ccc(-c4nnc(C(F)F)o4)cn3)nn2)cc1CN1CCCC1
Order each entry by recorded HDAC6 selectivity (fold), climbing from the minimum. Please reply with the labels ordered as requested. Many thanks.
b, a, c

P: FC(F)c1nnc(-c2ccc(Cn3cc(-c4ccc(CN5CC[C@@H](F)C5)nc4)nn3)nc2)o1
Q: FC(F)c1nnc(-c2ccc(Cn3cc(-c4ccc(CN5CC[C@@H](F)C5)s4)nn3)nc2)o1
Between the entries labelled P and Q , which has a larger HDAC6 selectivity (fold) value on record? Refer to your chosen entry by its label in the reply.
P
